Catalogue of A450 at 13 nM Ab in cell ELISA values
study system: T1, human IL-21R expressed on cells (human, UniProt Q9HBE5 20-538)
T1 construct: Transfected BaF3, TF1 and CHO cells; also native on primary human B and CD4+ T cells; also called hIL-21R; human IL-21R-BaF3 cells
T1 sequence (Q9HBE5 20-538 limits assumed): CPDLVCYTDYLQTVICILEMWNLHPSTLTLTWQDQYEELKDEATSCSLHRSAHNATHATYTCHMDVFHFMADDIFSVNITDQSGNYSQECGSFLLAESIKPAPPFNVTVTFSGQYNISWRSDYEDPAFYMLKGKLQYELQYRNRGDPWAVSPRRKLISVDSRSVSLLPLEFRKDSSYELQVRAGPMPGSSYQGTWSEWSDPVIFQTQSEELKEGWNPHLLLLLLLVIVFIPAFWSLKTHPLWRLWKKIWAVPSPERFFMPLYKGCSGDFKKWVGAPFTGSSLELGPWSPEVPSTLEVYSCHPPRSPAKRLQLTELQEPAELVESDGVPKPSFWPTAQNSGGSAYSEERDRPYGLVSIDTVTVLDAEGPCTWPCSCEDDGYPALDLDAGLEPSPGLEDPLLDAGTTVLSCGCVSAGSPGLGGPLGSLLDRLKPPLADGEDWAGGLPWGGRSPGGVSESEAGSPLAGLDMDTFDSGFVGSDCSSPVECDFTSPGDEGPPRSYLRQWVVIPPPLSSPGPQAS
run description: cell ELISA on transfected CHO cells, 13 nM IgG

binder | u | A450 at 13 nM Ab in cell ELISA
AbE (antibody, human IgG1, V domains shown, Full-length human IgG1 / human lambda, transient, conditioned medium; Framework limits derived; also called VHP/VL14) VH: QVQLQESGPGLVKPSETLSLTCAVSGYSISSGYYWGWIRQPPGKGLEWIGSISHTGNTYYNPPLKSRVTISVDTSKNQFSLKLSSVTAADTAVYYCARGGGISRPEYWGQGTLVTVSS VL: SSELTQDPAVSVALGQTVRITCQGDSLRTYYASWYQQKPGQAPVLVIYGKHKRPSGIPDRFSGSSSGNTASLTITGAQAEDEADYYCMARSRKGNPHVLFGGGTQLTVL | A450 | 1.26
AbN (antibody, human IgG1, V domains shown, Full-length human IgG1 / human lambda, transient, conditioned medium; Framework limits derived; also called VH6/VL24) VH: QVQLQESGPGLVKPSETLSLTCAVSGYSISSGYYWGWIRQPPGKGLEWIGSISHTGNTYYNPPLKSRVTISVDTSKNQFSLKLSSVTAADTAVYYCARFFGFGRPEYWGQGTLVTVSS VL: SSELTQDPAVSVALGQTVRITCQGDSLRTYYASWYQQKPGQAPVLVIYGKHKRPSGIPDRFSGSSSGNTASLTITGAQAEDEADYYCIARSNKGNPHVLFGGGTQLTVL | A450 | 1.21
AbB (antibody, human IgG1, V domains shown, Full-length human IgG1 / human lambda, transient, conditioned medium; Framework limits derived; also called VHP/VL3) VH: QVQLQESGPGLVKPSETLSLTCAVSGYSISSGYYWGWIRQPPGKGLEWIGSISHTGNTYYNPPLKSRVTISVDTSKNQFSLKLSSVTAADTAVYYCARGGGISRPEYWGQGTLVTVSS VL: SSELTQDPAVSVALGQTVRITCQGDSLRTYYASWYQQKPGQAPVLVIYGKHKRPSGIPDRFSGSSSGNTASLTITGAQAEDEADYYCVSRAVVGNPHVLFGGGTQLTVL | A450 | 1.15
AbJ (antibody, human IgG1, V domains shown, Full-length human IgG1 / human lambda, transient, conditioned medium; Framework limits derived; also called VH3/VLP) VH: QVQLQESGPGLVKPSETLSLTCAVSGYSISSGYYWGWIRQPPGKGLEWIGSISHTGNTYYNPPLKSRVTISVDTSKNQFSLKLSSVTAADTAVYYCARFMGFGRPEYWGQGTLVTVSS VL: SSELTQDPAVSVALGQTVRITCQGDSLRTYYASWYQQKPGQAPVLVIYGKHKRPSGIPDRFSGSSSGNTASLTITGAQAEDEADYYCNSRDSSGNPHVLFGGGTQLTVL | A450 | 1.22
AbA (antibody, human IgG1, V domains shown, Full-length human IgG1 / human lambda, transient, conditioned medium; Framework limits derived; also called VHP/VL2) VH: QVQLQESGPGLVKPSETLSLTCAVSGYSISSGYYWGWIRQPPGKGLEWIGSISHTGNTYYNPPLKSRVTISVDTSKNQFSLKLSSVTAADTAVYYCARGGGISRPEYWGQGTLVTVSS VL: SSELTQDPAVSVALGQTVRITCQGDSLRTYYASWYQQKPGQAPVLVIYGKHKRPSGIPDRFSGSSSGNTASLTITGAQAEDEADYYCVARSVVGNPHVLFGGGTQLTVL | A450 | 1.2
AbK (antibody, human IgG1, V domains shown, Full-length human IgG1 / human lambda, transient, conditioned medium; Framework limits derived; also called VH3/VL3) VH: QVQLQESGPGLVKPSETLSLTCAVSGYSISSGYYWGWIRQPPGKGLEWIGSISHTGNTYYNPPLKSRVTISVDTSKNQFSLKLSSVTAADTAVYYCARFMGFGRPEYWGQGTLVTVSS VL: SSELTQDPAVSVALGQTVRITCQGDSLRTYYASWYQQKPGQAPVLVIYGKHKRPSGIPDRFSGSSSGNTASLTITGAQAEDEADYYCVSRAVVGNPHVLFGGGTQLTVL | A450 | 1.36
AbO (antibody, human IgG1, V domains shown, Human IgG1 triple-mutant (L234A, L235A, G237A); Framework limits derived; also called VHP/VL16; VHPTM/VL16) VH: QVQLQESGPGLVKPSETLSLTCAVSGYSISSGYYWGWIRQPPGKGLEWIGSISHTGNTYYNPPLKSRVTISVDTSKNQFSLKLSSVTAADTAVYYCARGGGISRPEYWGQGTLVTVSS VL: SSELTQDPAVSVALGQTVRITCQGDSLRTYYASWYQQKPGQAPVLVIYGKHKRPSGIPDRFSGSSSGNTASLTITGAQAEDEADYYCVTRSAKGNPHVLFGGGTQLTVL | A450 | 1.11
AbH (antibody, human IgG1, V domains shown, Full-length human IgG1 / human lambda, transient, conditioned medium; Framework limits derived; also called VHP/VL19) VH: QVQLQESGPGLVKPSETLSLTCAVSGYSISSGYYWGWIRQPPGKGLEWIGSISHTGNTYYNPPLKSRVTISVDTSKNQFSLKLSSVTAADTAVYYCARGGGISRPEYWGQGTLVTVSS VL: SSELTQDPAVSVALGQTVRITCQGDSLRTYYASWYQQKPGQAPVLVIYGKHKRPSGIPDRFSGSSSGNTASLTITGAQAEDEADYYCVARAVRGNPHVLFGGGTQLTVL | A450 | 1.35
AbL (antibody, human IgG1, V domains shown, Full-length human IgG1 / human lambda, transient, conditioned medium; Framework limits derived; also called VH3/VL13) VH: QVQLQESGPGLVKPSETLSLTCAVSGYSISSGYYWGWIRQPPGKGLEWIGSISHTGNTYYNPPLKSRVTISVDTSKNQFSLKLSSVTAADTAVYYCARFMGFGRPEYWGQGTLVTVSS VL: SSELTQDPAVSVALGQTVRITCQGDSLRTYYASWYQQKPGQAPVLVIYGKHKRPSGIPDRFSGSSSGNTASLTITGAQAEDEADYYCVTRNRYGNPHVLFGGGTQLTVL | A450 | 1.45
AbP (antibody, human IgG1, V domains shown, Human IgG1 triple-mutant (L234A, L235A, G237A); Framework limits derived; also called VHP/VL20; VHPTM/VL20) VH: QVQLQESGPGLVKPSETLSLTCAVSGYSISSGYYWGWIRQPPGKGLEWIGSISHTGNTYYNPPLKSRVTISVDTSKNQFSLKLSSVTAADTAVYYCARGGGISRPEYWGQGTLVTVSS VL: SSELTQDPAVSVALGQTVRITCQGDSLRTYYASWYQQKPGQAPVLVIYGKHKRPSGIPDRFSGSSSGNTASLTITGAQAEDEADYYCVSRSAKGNPHVLFGGGTQLTVL | A450 | 1.31
AbG (antibody, human IgG1, V domains shown, Full-length human IgG1 / human lambda, transient, conditioned medium; Framework limits derived; also called VHP/VL18) VH: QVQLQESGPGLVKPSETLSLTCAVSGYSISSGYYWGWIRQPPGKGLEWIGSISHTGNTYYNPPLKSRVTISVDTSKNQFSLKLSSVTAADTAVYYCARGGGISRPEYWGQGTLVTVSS VL: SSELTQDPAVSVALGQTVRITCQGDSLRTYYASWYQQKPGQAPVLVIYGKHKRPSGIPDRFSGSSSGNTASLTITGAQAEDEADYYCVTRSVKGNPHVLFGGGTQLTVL | A450 | 1.35

Source of measurements: patent US20090298167A1
